Source of measurements: ChEMBL document CHEMBL5223135

# EXPERIMENTAL DETAILS: n-Octanol/water partition coefficient, logP of the compound
# Assay type: physicochemical
MEASURE NAME: logP
Numbers only.

stdin: For the compound N=C(Nc1cnc(F)c(F)c1)Nc1cnc(F)c(F)c1 , give its measured logP value.
stdout: 1.76

----------
Assignment: determine reported Papp for the given compounds.
# EXPERIMENTAL DETAILS: Permeability in human Caco-2 cells
# Assay type: ADME, cell-based
# MEASUREMENT PARAMETERS: read-out: permeability

C(=N\Nc1nnc(-c2cccs2)c(-c2cccs2)n1)/c1cc2ccccc2[nH]1 : 0.53 ×10⁻⁶ cm/s

Hi, could you look up Papp for each item in my list?
1. Cn1c(N/N=C/c2cccc(Cl)c2Cl)nc2ccccc2c1=O
2. O=[N+]([O-])c1ccc(-n2cc(COc3ccc(/C=N/Nc4nnc(-c5ccccc5)c(-c5ccccc5)n4)cc3)nn2)cc1

stdout:
1. 0.57 ×10⁻⁶ cm/s
2. 0.53 ×10⁻⁶ cm/s
